Target: T1, biotin-labeled CD3 epsilon peptide antigen (human, also: biotin-labeled, position not given here)
T1 construct: Peptide of CD3 epsilon; also called CD3 peptide
T1 peptide: QDGNEEMGGITQTPY
Assay: bead ELISA, biotin-CD3 epsilon peptide on streptavidin beads, 100 ng IgG
Where no end group is shown, it is not given here.
As shown below, each of these binders has a reported S/N ratio CD3 peptide/non coating value.
reported-metric: S/N ratio CD3 peptide/non coating

>>> endpoint_result("DADU01_3#018 (antibody, human IgG1, V domains shown, also called dBBDu123) VH: QVQLVESGGGLVQPGRSLRLSCAASGFTFSNAWMHWVRQAPGKGLEWVAQIKDRANSYNAYYAPSVKGRFTISRDDSKNSIYLQMNSLKTEDTAVYYCHYVHYSAASTLLPSFGVDAWGQGTTVTVSS VL: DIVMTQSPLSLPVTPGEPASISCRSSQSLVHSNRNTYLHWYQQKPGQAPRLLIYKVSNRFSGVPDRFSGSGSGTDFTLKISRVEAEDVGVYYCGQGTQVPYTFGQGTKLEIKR")
149
>>> endpoint_result("DXDU01_3#051 (antibody, human IgG1, V domains shown, also called dBBDu127) VH: QVQLVESGGGLVQPGRSLRLSCAASGFTFSNAWMHWVRQAPGKGLEWVAQIKDRGQQYNAYYAPSVKGRFTISRDDSKNSIYLQMNSLKTEDTAVYYCHYVHYASASSVLPGYGVDAWGQGTTVTVSS VL: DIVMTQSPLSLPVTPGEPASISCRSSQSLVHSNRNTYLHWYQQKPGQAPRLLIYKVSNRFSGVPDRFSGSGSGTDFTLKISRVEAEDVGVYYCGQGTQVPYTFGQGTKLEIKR")
145
>>> endpoint_result("DXDU01_3#072 (antibody, human IgG1, V domains shown, also called dBBDu122) VH: QVQLVESGGGLVQPGRSLRLSCAASGFTFSNAWMHWVRQAPGKGLEWVAQIKDRSQLYAAYYAPSVKGRFTISRDDSKNSIYLQMNSLKTEDTAVYYCHYVHYASASTVLGAYGVDAWGQGTTVTVSS VL: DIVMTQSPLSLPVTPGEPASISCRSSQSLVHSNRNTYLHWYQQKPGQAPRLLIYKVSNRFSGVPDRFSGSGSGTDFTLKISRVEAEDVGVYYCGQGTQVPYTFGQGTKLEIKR")
148
>>> endpoint_result("DXDU01_3#019 (antibody, human IgG1, V domains shown, also called dBBDu125) VH: QVQLVESGGGLVQPGRSLRLSCAASGFTFSIAWMHWVRQAPGKGLEWVAQIKDKVNGYTAYYAESVKGRFTISRDDSKNSIYLQMNSLKTEDTAVYYCRYVHYAAYYDVLGYGGVDAWGQGTTVTVSS VL: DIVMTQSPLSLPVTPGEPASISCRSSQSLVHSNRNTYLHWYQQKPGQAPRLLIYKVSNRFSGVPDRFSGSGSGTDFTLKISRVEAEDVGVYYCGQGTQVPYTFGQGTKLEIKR")
161
>>> endpoint_result("DXDU01_3#094 (antibody, human IgG1, V domains shown, also called dBBDu121) VH: QVQLVESGGGLVQPGRSLRLSCAASGFTFSNAWMHWVRQAPGKGLEWVAQIKDKGNAYAAYYAPSVKGRFTISRDDSKNSIYLQMNSLKTEDTAVYYCHYVHYASAAGGLPGFGVDAWGQGTTVTVSS VL: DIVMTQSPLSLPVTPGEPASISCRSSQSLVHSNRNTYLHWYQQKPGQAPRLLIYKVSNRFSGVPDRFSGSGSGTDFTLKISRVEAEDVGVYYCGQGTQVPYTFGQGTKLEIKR")
141
>>> endpoint_result("DADU01_3#002 (antibody, human IgG1, V domains shown, also called dBBDu124) VH: QVQLVESGGGLVQPGRSLRLSCAASGFTFSNAWMHWVRQAPGKGLEWVAQIKDKQNLYNAYYAESVKGRFTISRDDSKNSIYLQMNSLKTEDTAVYYCHYVHYASASTVLPAFGVDAWGQGTTVTVSS VL: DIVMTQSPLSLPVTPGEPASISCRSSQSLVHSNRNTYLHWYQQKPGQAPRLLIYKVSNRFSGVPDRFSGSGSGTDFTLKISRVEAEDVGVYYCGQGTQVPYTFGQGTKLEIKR")
156

Reference for the values: patent US20240270846A1
